# tested-system: HDAC1 (Homo sapiens (Human))
# Sequence (Q13547 whole entry): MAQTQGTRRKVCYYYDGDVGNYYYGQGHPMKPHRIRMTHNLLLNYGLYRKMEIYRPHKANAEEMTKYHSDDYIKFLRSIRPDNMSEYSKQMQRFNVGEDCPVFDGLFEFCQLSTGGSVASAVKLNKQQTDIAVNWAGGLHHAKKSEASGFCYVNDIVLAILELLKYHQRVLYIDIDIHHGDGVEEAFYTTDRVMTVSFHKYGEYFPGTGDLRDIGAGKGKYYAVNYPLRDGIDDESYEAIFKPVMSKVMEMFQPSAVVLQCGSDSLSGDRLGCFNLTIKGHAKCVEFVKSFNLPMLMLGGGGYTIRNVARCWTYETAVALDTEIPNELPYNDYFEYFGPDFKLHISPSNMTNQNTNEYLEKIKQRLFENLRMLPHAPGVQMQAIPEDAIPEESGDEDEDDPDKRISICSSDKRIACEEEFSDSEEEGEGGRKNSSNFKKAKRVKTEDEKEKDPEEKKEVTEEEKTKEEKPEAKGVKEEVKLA
# measurement-description: HDAC1 in vitro enzymatic assay (fluorescence)
# Assay type: biochemical
# measurement-conditions: Table 4 selectivity profiling
Structures can show the parent of a compound that is named as a salt.
Answer each item with its documented log10(IC50).
Reminder: these figures are log10 of reported IC50, in nM before transformation.

> print(dat)
                                   compound                 tested.system  readout.value
1        O=C(NO)c1ccc2sc(-c3ccc(F)cc3)nc2c1  HDAC1 (Homo sapiens (Human))           3.18
2    CC(C)c1ccc(-c2cc3cc(C(=O)NO)cnc3o2)cc1  HDAC1 (Homo sapiens (Human))           2.70
3  COc1ncccc1-c1ccc(-c2nc3cc(C(=O)NO)ccc3o2)cc1  HDAC1 (Homo sapiens (Human))           3.75

Quick request: log10(IC50) for each listed item, please.
1. COc1cccc(-c2cc3ccc(C(=O)NO)cc3o2)c1
2. CC(C)c1ccc(-c2cc3cc(C(=O)NO)ccc3s2)cc1
3. O=C(NO)c1ccc2nc(Nc3cccc(OCc4ccccc4)c3)[nH]c2c1
4. O=C(NO)c1ccc2nc(-c3cccc4cccnc34)sc2c1
5. O=C(NO)c1ccc2oc(-c3ccccc3Cl)nc2c1
6. O=C(NO)c1ccc2oc(-c3ccc(OC(F)(F)F)cc3)nc2c1
7. CC(C)(C)c1ccc(-c2nc3cc(C(=O)NO)ccc3s2)cc1
8. CCN(CC)Cc1cc2ccc(C(=O)NO)cc2o1 [Example 117, trifluoroacetate]

2.67
5.00
3.08
3.79
3.08
3.78
3.26
4.28

Quick request: log10(IC50) for each listed item, please.
1. Cc1noc(C)c1-c1cc2cc(C(=O)NO)ccc2s1
2. CC(C)c1ccc(-c2nc3cc(C(=O)NO)ccc3s2)cc1
3. CC(C)c1ccc(Nc2nc3cc(C(=O)NO)ccc3o2)cc1
4. CC(C)c1ccc(-c2nc3cc(C(=O)NO)ccc3o2)cc1
5. O=C(NO)c1ccc2sc(-c3cccnc3)cc2c1
6. O=C(NO)c1ccc2oc(-c3ccc(-c4ccccc4F)cc3)nc2c1
7. CC(C)c1ccc(-c2cc3ccc(C(=O)NO)cc3s2)cc1

1. 4.15
2. 2.95
3. 3.71
4. 3.60
5. 3.99
6. 3.75
7. 4.41

----------
# tested-system: HDAC6 (Homo sapiens (Human))
# Sequence (Q9UBN7 whole entry): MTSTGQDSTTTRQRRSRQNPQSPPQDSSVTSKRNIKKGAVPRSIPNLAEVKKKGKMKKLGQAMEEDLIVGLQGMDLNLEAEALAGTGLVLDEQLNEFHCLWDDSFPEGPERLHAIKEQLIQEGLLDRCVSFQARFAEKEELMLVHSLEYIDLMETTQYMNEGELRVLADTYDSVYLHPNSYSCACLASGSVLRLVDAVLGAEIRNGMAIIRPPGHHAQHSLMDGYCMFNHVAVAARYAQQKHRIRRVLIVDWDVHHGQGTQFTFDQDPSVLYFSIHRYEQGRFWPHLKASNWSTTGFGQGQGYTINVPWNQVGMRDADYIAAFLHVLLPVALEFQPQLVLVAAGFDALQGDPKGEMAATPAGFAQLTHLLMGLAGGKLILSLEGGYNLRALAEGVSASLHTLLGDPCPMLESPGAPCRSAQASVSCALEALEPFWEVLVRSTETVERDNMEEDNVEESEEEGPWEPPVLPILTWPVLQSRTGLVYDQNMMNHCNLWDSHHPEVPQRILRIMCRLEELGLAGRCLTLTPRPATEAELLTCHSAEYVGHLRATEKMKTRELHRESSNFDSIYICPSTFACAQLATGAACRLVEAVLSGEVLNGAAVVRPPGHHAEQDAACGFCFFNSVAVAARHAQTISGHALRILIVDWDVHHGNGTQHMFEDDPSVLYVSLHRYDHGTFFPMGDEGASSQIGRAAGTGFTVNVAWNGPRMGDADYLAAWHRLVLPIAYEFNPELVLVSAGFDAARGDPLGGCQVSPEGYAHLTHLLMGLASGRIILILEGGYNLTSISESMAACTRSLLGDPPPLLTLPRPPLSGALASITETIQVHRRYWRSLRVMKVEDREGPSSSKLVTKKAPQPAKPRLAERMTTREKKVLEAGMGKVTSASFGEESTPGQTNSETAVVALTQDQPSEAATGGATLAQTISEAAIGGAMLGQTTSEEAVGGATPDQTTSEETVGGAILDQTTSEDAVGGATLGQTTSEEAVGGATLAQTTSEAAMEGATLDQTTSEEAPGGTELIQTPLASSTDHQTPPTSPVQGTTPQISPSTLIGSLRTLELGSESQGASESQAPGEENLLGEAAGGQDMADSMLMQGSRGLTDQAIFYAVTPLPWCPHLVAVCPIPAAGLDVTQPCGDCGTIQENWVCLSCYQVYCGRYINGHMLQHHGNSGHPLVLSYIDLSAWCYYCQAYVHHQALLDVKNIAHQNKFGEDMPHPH
# measurement-description: HDAC6 in vitro enzymatic assay (fluorescence)
# Type: biochemical
# measurement-conditions: Table 3; read-out: IC50 (nM) for inhibition of HDAC6
Where a name gives a salt, the structure may show the parent alone.
Rule: IC50 below 20 nM gives Fulfilled, anything at or above gives Not fulfilled.

> print(dat)
                                   compound                 tested.system  classification
1  O=C(NO)c1ccc2oc(-c3ccc(-c4ccc(CN5CCCCC5)cc4)cc3)nc2c1 [Example 30, trifluoroacetate]  HDAC6 (Homo sapiens (Human))       Fulfilled
2  Cn1c(N2CCC(Cc3ccccc3)CC2)nc2cc(C(=O)NO)ccc21  HDAC6 (Homo sapiens (Human))       Fulfilled
3    CC(C)c1ccc(-c2cc3cc(C(=O)NO)ccc3s2)cc1  HDAC6 (Homo sapiens (Human))   Not fulfilled

Strictly below 20 nM: is that where IC50 of Cn1c(Nc2ccccc2)nc2cc(C(=O)NO)ccc21 sits?
Not fulfilled

Strictly below 20 nM: is that where IC50 of O=C(NO)c1ccc2oc(-c3cccc(O)c3)nc2c1 sits?
Not fulfilled

Strictly below 20 nM: is that where IC50 of C[C@@H]1CN(Cc2cccc(-c3nc4cc(C(=O)NO)ccc4o3)c2)C[C@H](C)O1 [Example 202, trifluoroacetate] sits?
Not fulfilled

Strictly below 20 nM: is that where IC50 of CC(C)(C)c1ccc(-c2nc3ccc(C(=O)NO)cc3o2)cc1 sits?
Not fulfilled

Strictly below 20 nM: is that where IC50 of COc1ccc(CN(CCN(C)C)c2nc3cc(C(=O)NO)ccc3o2)cc1OC [Example 244, trifluoroacetate] sits?
Not fulfilled

Strictly below 20 nM: is that where IC50 of O=C(NO)c1ccc2oc(-c3ccc(-c4cccnc4)cc3)nc2c1 sits?
Fulfilled
